IC50 reference
assay: Antiproliferative activity against human MDA-MB-231 cells after 48 hrs by MTT assay; type: functional, cell-based; settings: MDA-MB-231, 48 h
RESULT_TYPE: IC50

INSERT INTO assay_data (smiles_code, result_type, recorded_result) VALUES
  ('COC(=O)/C(=C/c1ccccc1)CN1C(=O)[C@@H](OC)[C@H]1c1ccc(Cl)cc1Cl', 'IC50', '19 µM'),
  ('COC(=O)/C(=C/c1ccccc1)CN1C(=O)[C@@H](OC)[C@H]1c1ccc(OC)cc1', 'IC50', '14 µM'),
  ('COc1cc2c(c(OC)c1OC)-c1ccc(OC)c(=O)cc1[C@@H](NC(C)=O)CC2', 'IC50', '3.55 µM'),
  ('CO[C@@H]1C(=O)N(C/C(C#N)=C/c2ccccc2)[C@@H]1c1cccc(C)c1', 'IC50', '11.1 µM'),
  ('CO[C@@H]1C(=O)N(C/C(C#N)=C/c2ccccc2)[C@@H]1c1ccc(Cl)cc1Cl', 'IC50', '17 µM'),
  ('COC(=O)/C(=C/c1ccccc1)CN1C(=O)[C@@H](OC)[C@H]1c1ccc(F)cc1', 'IC50', '21.8 µM'),
  ('CCOC(=O)/C(=C/c1ccccc1)CN1C(=O)[C@@H](OC)[C@H]1c1ccc(F)cc1', 'IC50', '14 µM'),
  ('CCOC(=O)/C(=C/c1ccccc1)CN1C(=O)[C@@H](OC)[C@H]1c1cccc([N+](=O)[O-])c1', 'IC50', '14.4 µM'),
  ('CO[C@@H]1C(=O)N(C/C(C#N)=C/c2ccccc2)[C@@H]1c1ccc(Cl)cc1', 'IC50', '18 µM');

----------
experiment: Antiproliferative activity against human mammary epithelial cells after 48 hrs by MTT assay; type: cell-based, Epithelial cell; settings: Homo sapiens, Epithelial cell, 48 h; read-out: IC50
pIC50: −log10 of the molar value.
Some compounds, each annotated with its measured pIC50.
RESULT_TYPE: pIC50

INSERT INTO results (smiles_code, recorded_result) VALUES
  ('CO[C@@H]1C(=O)N(C/C(C#N)=C/c2ccccc2)[C@@H]1c1ccc(Cl)cc1Cl', '< 4.00'),
  ('CO[C@@H]1C(=O)N(C/C(C#N)=C/c2ccccc2)[C@@H]1c1ccc2c(c1)OCO2', '< 4.00'),
  ('COc1ccc(OC)c([C@@H]2[C@H](OC)C(=O)N2C/C(C#N)=C/c2ccccc2)c1', '< 4.00');
